# System: MCF7
# assay_method_text: Cytotoxicity against human MCF7 cells by MTT assay
# Format: functional, cell-based
Reported pIC50 is given for each of the following molecules.
// returns pIC50 (minus log10 of molar concentration), number only

Example entries begin here.
COc1cc(-c2nc(CN3CCN(Cc4cc5c6ccccc6n(C)c5c(-c5cc(OC)c(OC)c(OC)c5)n4)CC3)cc3c4ccccc4n(C)c23)cc(OC)c1OC ... 4.18
Cc1nc(CN2CCN(Cc3cc4c5ccccc5n(CC(C)C)c4c(C)n3)CC2)cc2c3ccccc3n(CC(C)C)c12 ... 5.15

Look up pIC50: CCCCn1c2ccccc2c2cc(CN3CCN(Cc4cc5c6ccccc6n(CCCC)c5c(-c5cc(OC)c(OC)c(OC)c5)n4)CC3)nc(-c3cc(OC)c(OC)c(OC)c3)c21
4.90

What about this molecule? Fc1ccc(Cn2c3ccccc3c3cc(CN4CCN(Cc5cc6c7ccccc7n(Cc7ccc(F)cc7)c6cn5)CC4)ncc32)cc1
4.14

What about this molecule? CCCCn1c2ccccc2c2cc(CN3CCN(Cc4cc5c6ccccc6n(CCCC)c5c(-c5ccc(OC)c(OC)c5)n4)CC3)nc(-c3ccc(OC)c(OC)c3)c21
4.84

What about this molecule? Cc1nc(CN2CCN(Cc3cc4c5ccccc5n(Cc5cccc(Cl)c5)c4c(C)n3)CC2)cc2c3ccccc3n(Cc3cccc(Cl)c3)c12
4.36

###

# assay_method_text: Cytotoxicity against mouse LLC cells by MTT assay
# Assay type: functional, cell-based
# conditions_used: Lewis lung carcinoma
hey, just use criterion met if measured IC50 is less than 40 µM, otherwise criterion not met

Example results:
COc1ccc(-c2nc(CN3CCN(Cc4cc5c6ccccc6n(C)c5c(-c5ccc(OC)cc5)n4)CC3)cc3c4ccccc4n(C)c23)cc1 ... criterion not met
Cn1c2ccccc2c2cc(CN3CCN(Cc4cc5c6ccccc6n(C)c5c(-c5ccccc5)n4)CC3)nc(-c3ccccc3)c21 ... criterion met
c1ccc(Cn2c3ccccc3c3cc(CN4CCN(Cc5cc6c7ccccc7n(Cc7ccccc7)c6cn5)CC4)ncc32)cc1 ... criterion not met
Fc1ccc(Cn2c3ccccc3c3cc(CN4CCN(Cc5cc6c7ccccc7n(Cc7ccc(F)cc7)c6cn5)CC4)ncc32)cc1 ... criterion met
COc1ccc(-c2nc(CN3CCN(Cc4cc5c6ccccc6n(CCCc6ccccc6)c5c(-c5ccc(OC)cc5)n4)CC3)cc3c4ccccc4n(CCCc4ccccc4)c23)cc1 ... criterion not met
CCCCn1c2ccccc2c2cc(CN3CCN(Cc4cc5c6ccccc6n(CCCC)c5c(-c5ccc(OC)cc5)n4)CC3)nc(-c3ccc(OC)cc3)c21 ... criterion met

Let us examine a further case.
Does this molecule meet the criterion IC50 < 40 µM? CCn1c2ccccc2c2cc(CN3CCN(Cc4cc5c6ccccc6n(CC)c5cn4)CC3)ncc21
criterion met

###

# System: MCF7
# assay_method_text: Cytotoxicity against human MCF7 cells by MTT assay
# Format: functional, cell-based
value_kind: IC50

Example entries begin here.
COc1cc(-c2nc(CN3CCN(Cc4cc5c([nH]c6ccccc65)c(-c5cc(OC)c(OC)c(OC)c5)n4)CC3)cc3c2[nH]c2ccccc23)cc(OC)c1OC ... > 100 µM
CCCCn1c2ccccc2c2cc(CN3CCN(Cc4cc5c6ccccc6n(CCCC)c5cn4)CC3)ncc21 ... 29.2 µM
c1ccc(Cn2c3ccccc3c3cc(CN4CCN(Cc5cc6c7ccccc7n(Cc7ccccc7)c6cn5)CC4)ncc32)cc1 ... > 100 µM

Look up IC50: Cn1c2ccccc2c2cc(CN3CCN(Cc4cc5c6ccccc6n(C)c5c(-c5ccccc5)n4)CC3)nc(-c3ccccc3)c21
> 100 µM

What about this compound? CCn1c2ccccc2c2cc(CN3CCN(Cc4cc5c6ccccc6n(CC)c5c(-c5ccc(OC)c(OC)c5)n4)CC3)nc(-c3ccc(OC)c(OC)c3)c21
27.3 µM

What about this compound? CCn1c2ccccc2c2cc(CN3CCN(Cc4cc5c6ccccc6n(CC)c5cn4)CC3)ncc21
82.8 µM

###

# assay_method_text: Cytotoxicity against mouse LLC cells by MTT assay
# Format: functional, cell-based
# conditions_used: Lewis lung carcinoma
Reported pIC50 is given for each of the following molecules.
// returns pIC50 (minus log10 of molar concentration), number only

Look up pIC50: Cc1nc(CN2CCN(Cc3cc4c5ccccc5n(C)c4c(C)n3)CC2)cc2c3ccccc3n(C)c12
4.21

What about this molecule? CCCCn1c2ccccc2c2cc(CN3CCN(Cc4cc5c6ccccc6n(CCCC)c5c(-c5ccc(OC)c(OC)c5)n4)CC3)nc(-c3ccc(OC)c(OC)c3)c21
5.01

What about this molecule? CCn1c2ccccc2c2cc(CN3CCN(Cc4cc5c6ccccc6n(CC)c5c(-c5ccc(OC)c(OC)c5)n4)CC3)nc(-c3ccc(OC)c(OC)c3)c21
5.01

###

# assay_method_text: Cytotoxicity against mouse LLC cells by MTT assay
# Assay type: functional, cell-based
# conditions_used: Lewis lung carcinoma
Reported pIC50 is given for each of the following molecules.
// returns pIC50 (minus log10 of molar concentration), number only

CCn1c2ccccc2c2cc(CN3CCN(Cc4cc5c6ccccc6n(CC)c5c(-c5ccccc5)n4)CC3)nc(-c3ccccc3)c21 ... 4.85

Look up pIC50: CCCCn1c2ccccc2c2cc(CN3CCN(Cc4cc5c6ccccc6n(CCCC)c5c(-c5cc(OC)c(OC)c(OC)c5)n4)CC3)nc(-c3cc(OC)c(OC)c(OC)c3)c21
4.70

What about this molecule? CCCCn1c2ccccc2c2cc(CN3CCN(Cc4cc5c6ccccc6n(CCCC)c5cn4)CC3)ncc21
5.63

What about this molecule? Cc1nc(CN2CCN(Cc3cc4c5ccccc5n(CC(C)C)c4c(C)n3)CC2)cc2c3ccccc3n(CC(C)C)c12
5.11

What about this molecule? COc1ccc(-c2nc(CN3CCN(Cc4cc5c6ccccc6n(Cc6ccccc6)c5c(-c5ccc(OC)c(OC)c5)n4)CC3)cc3c4ccccc4n(Cc4ccccc4)c23)cc1OC
4.44

What about this molecule? Cc1nc(CN2CCN(Cc3cc4c5ccccc5n(Cc5cccc(Cl)c5)c4c(C)n3)CC2)cc2c3ccccc3n(Cc3cccc(Cl)c3)c12
4.92

###

# assay_method_text: Cytotoxicity against mouse LLC cells by MTT assay
# Assay type: functional, cell-based
# conditions_used: Lewis lung carcinoma
Reported IC50 is given for each of the following compounds.

Example entries begin here.
c1ccc(CCCn2c3ccccc3c3cc(CN4CCN(Cc5cc6c7ccccc7n(CCCc7ccccc7)c6c(-c6ccccc6)n5)CC4)nc(-c4ccccc4)c32)cc1 ... > 100 µM
COc1ccc(-c2nc(CN3CCN(Cc4cc5c6ccccc6n(CCCc6ccccc6)c5c(-c5ccc(OC)c(OC)c5)n4)CC3)cc3c4ccccc4n(CCCc4ccccc4)c23)cc1OC ... > 100 µM

Next compound, IC50 to be filled in.
Look up IC50: c1ccc(CCCn2c3ccccc3c3cc(CN4CCN(Cc5cc6c7ccccc7n(CCCc7ccccc7)c6cn5)CC4)ncc32)cc1
5.15 µM

###

Reported pIC50 is given for each of the following compounds.
# assay_method_text: Cytotoxicity against mouse LLC cells by MTT assay
# Assay type: functional, cell-based
# conditions_used: Lewis lung carcinoma
pIC50: −log10 of the molar value.

Example entries begin here.
c1ccc(Cn2c3ccccc3c3cc(CN4CCN(Cc5cc6c7ccccc7n(Cc7ccccc7)c6c(-c6ccccc6)n5)CC4)nc(-c4ccccc4)c32)cc1 ... < 4.00
COc1ccc(-c2nc(CN3CCN(Cc4cc5c([nH]c6ccccc65)c(-c5ccc(OC)cc5)n4)CC3)cc3c2[nH]c2ccccc23)cc1 ... < 4.00

Look up pIC50: COc1cc(-c2nc(CN3CCN(Cc4cc5c6ccccc6n(CCCc6ccccc6)c5c(-c5cc(OC)c(OC)c(OC)c5)n4)CC3)cc3c4ccccc4n(CCCc4ccccc4)c23)cc(OC)c1OC
< 4.00
